System: MS2 coat protein
Assay: apparent KD of MS2 coat protein; designed switch direction (-1 OFF switch, 1 ON switch): -1; higher = weaker reporter binding
Conditions: input ligand: FMN 200 uM
# apparent KD of MS2 coat protein listing for each entry below
// units = nM; emit number, no label

Q: Provide one value: measured apparent KD of MS2 coat protein of CAGUCGAUAAGAUCAAUUAAUUAACAUGAGGAUCACCCAUGUGAGGAUAUCAGCUCGUUUAGAGCUGAGAAGGCACAACGACUG [ExNG3/17-A2] (Eterna round: R96, puzzle: Exclusion NG 3)
Ans: 305

Q: Provide one value: measured apparent KD of MS2 coat protein of AACUAUUUAGGAUAUCAGGCGAACCACAUGAGGAUCACCCAUGUGGCCCGUUGUGGUCCUUGAGAAGGAAAGAGUU [EX5 B.15] (Eterna round: R97, puzzle: Exclusion 5)
Ans: 53.5

Q: Provide one value: measured apparent KD of MS2 coat protein of CGCAUGCAAGGAUAUACUUGCAGUGAUAUUCGAUAAAGUCUACUUGAGGAUCACCCAAGUAGAAGGUGCAUGCG [Exclusion 2 (Mod6.1 JL EX2 4.74 Vienna UCT mod of Mamaed)] (Eterna round: R97, puzzle: Exclusion 2)
Ans: 33.3

Q: Provide one value: measured apparent KD of MS2 coat protein of CUCAUGUGAGGAUAUCACAUAGCGUCACGGCUGUAACAUUUUGAGAAGGCACAUGAGGAUCACCCAUGUGACAC [Eternabot (L2) Solution 79] (Eterna round: R97, puzzle: Exclusion 4)
Ans: 104

New cases:
Q: Provide one value: measured apparent KD of MS2 coat protein of UUUAAUUGUGACAUGGGUGACAUGAGGAUCACCCAUGUCACAAGCUUUUUGUUCGUCUUAUAAUUAACCCAUGUCAC [Stov1/13-B1] (Eterna round: R97, puzzle: Sensor, turn-off variant 1)
Ans: 37.8

----------
Tested on: MS2 coat protein
Test: apparent KD of MS2 coat protein; designed switch direction (-1 OFF switch, 1 ON switch): 1; higher = weaker reporter binding
Settings: input ligand: none
resultType: apparent KD of MS2 coat protein (nM)
// units = nM; emit number, no label

Q: Provide one value: measured apparent KD of MS2 coat protein of GCUAGAAAUAAUGCCAACAUGAGGAUCACCCAUGUAUGUUGGCAGGAUAUCGUUUGCUUUGCAAACGAGAAGGGCUAAACUAGC [Mat - Same State NG 3 - JL Mod - D7] (Eterna round: R96, puzzle: Same State NG 3)
Ans: 280

Query sequence follows.
Q: Provide one value: measured apparent KD of MS2 coat protein of GGUGCAAUUAACGCCUACAUGAGGAUCACCCAUGUAUGUAGGCAGGAUAUCGUUUGCUUUGCAAACGAGAAGGGCUAUAGUACC [JL SSNG3 1.15] (Eterna round: R96, puzzle: Same State NG 3)
Ans: 157

----------
Test system: MS2 coat protein
Assay: apparent KD of MS2 coat protein; higher = weaker reporter binding
Settings: Eterna round: R107; input ligand: arginine 13.2 mM
Quick rule: apparent KD of MS2 coat protein of at least 20 nM means True, below that means False.

Worked examples, 3 sequences total:
Q: Threshold query (apparent KD of MS2 coat protein >= 20 nM) on CGAGUAGGUUCAAUCGAAUAACGGUUUUCGCGAGGACCGGUACGGCCGCCACUCGUGUGAUAUCACACAUGAGGAUCACCCAUGU [3'end-1]
Ans: True

Q: Threshold query (apparent KD of MS2 coat protein >= 20 nM) on AAAAUCCUACCUGAGGAUCACCCGGGUGAAGGAGCGCCCGAAAGGGCAGGUAGGUCGCACCUGAGGAUCACCCUGGUAACCUAAA [ArgEX 12 #DoubleMS2 #OpenEnded #AlternativeMS2]
Ans: True

Q: Threshold query (apparent KD of MS2 coat protein >= 20 nM) on AAAUAAAUACAUGAGGAUCACCCAUGUGAAGGAGCGGCCGUUAGGCCAGGUAGGUCGCGCAUGAAUAACUCCGUGCAAAAGCACA [MAT - Exclusion Arginine A - Mod of Eli - D18]
Ans: False

Read the next record carefully.
Q: Threshold query (apparent KD of MS2 coat protein >= 20 nM) on ACAUGAGGAUCACCCAUGUACAUGAGGGAAGGAGCGGUACAUGAGCCAGGUAGGUCGCCCAACAGCAAAUGGCAUGUACAACGGA [hhnmullin]
Ans: True

----------
System: MS2 coat protein
Experiment: apparent KD of MS2 coat protein; higher = weaker reporter binding
Details: Eterna round: R107; input ligand: arginine 13.2 mM
resultType: apparent KD of MS2 coat protein
Give the value; after it, write the unit.

Known results for sequences:
Q: Provide one value: measured apparent KD of MS2 coat protein of AGCCCGGGAGCGGCCGCCACUGGAGGCUGAGCGCGACAUGAGGAUCACCCAUGUGUGCCCGGCGUUAGGACCGGGCUCGCGUGGU [#1 Same State - Tryptophan B Attempt #23 (HarryS)]
Ans: 28.4 nM

Q: Provide one value: measured apparent KD of MS2 coat protein of UAUAUAUAGGCGGCCGCCACUGAUUUUCAUAUAUAUAUAACAUGAGGAUCACCCAUGUAGAUAUACAGGACCGGGCCUAUAUAUA [aaaA]
Ans: 17 nM

New cases:
Q: Provide one value: measured apparent KD of MS2 coat protein of AGACGAGCAAUCAACGGGCGUUUCGUGACGCGAGGACCGGUACGGCCGCCACUCGAGUCUGGACAUGAGGAUCACCCAUGUUAUG [theeternabot_exclusion_MS2_Trp_A_46]
Ans: 32.8 nM

----------
# apparent KD of K4 kissing-loop reporter listing for each entry below
Test system: K4 kissing-loop RNA reporter;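 further: bound reporter read as fluorescence of individual clusters on recovered sequencing chips by microscopy, with normalized cluster intensities fitted with a binding model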
Assay: apparent KD of K4 kissing-loop reporter; higher = weaker reporter binding
Settings: Eterna round: R107; input ligand: theophylline 20 uM
// units = nM; emit number, no label

Q: Provide one value: measured apparent KD of K4 kissing-loop reporter of GGAUCCACCAGUGAUGUUGGAGAAAACUCGAAGGAUAUGACGAAAGUCAGAAGGUCGUAGACUGGACAAAGUCCGGUCGGAUCCA [FmnA 19 G30+C56]
Ans: 490

Q: Provide one value: measured apparent KD of K4 kissing-loop reporter of CGGCUCUAUCCUAGUAUUAAGAGGGAGUUGCGAGGACCGGUACGGCCGCCACUCGAAGUAGUUUGGCCAGUGAUGUUGGUCUUAC [Qubeatonza]
Ans: 152

Query sequence follows.
Q: Provide one value: measured apparent KD of K4 kissing-loop reporter of UGACAUUGCUCAGAUACCAGACCUGAGGAACACCCAGGUGCCAAAACGUACUAAAUAAAGGUCCCUUGGCAGCUGAGCAAUGUCU [TheoBX 13]
Ans: 77.6

----------
Tested on: MS2 coat protein
Assay: apparent KD of MS2 coat protein, switch OFF state (with FMN for OFF switches, without FMN for ON switches); designed switch direction (-1 OFF switch, 1 ON switch): 1; higher = weaker reporter binding
Conditions: FMN input: 0 or 200 uM; Eterna round: R93 (includes R88 designs)
Quick rule: apparent KD of MS2 coat protein of at least 0.06 µM means yes, below that means no.

Worked examples, 8 sequences total:
Q: Threshold query (apparent KD of MS2 coat protein >= 0.06 µM) on AUUCCAAAUAGUCAGGAUAUCAGAAGUAAGACAUGAGGAUCACCCAUGUACUUAGUAAAAGUAACUGAGAAGGGACAGGGUGUAA [JR_SS002_Sub405]
Ans: no

Q: Threshold query (apparent KD of MS2 coat protein >= 0.06 µM) on UCCUUACAUGAGGAUCACCCAUGUCGCAGGAAUCAAGGAUAUGGGUCCGCAAUGCGGAAACCAGAAGGUGACAAAA [Edusquanon]
Ans: yes

Q: Threshold query (apparent KD of MS2 coat protein >= 0.06 µM) on AAAAAACAUGAGGAUCACCCAUGUAAAAAUAUGGGAGGAUAUGGAAACACGAAAGUGAAACCAGAAGGCUCAAAAG [77%, Mat - Mod of Eli, 17]
Ans: yes

Q: Threshold query (apparent KD of MS2 coat protein >= 0.06 µM) on CGGAGACAUGAGGAUCACCCAUGUGAGAAGAGGCGAGGAUAUCGAAAGAAAGAAGAGAAACGAGAAGGCGCGAGUA [salish99-SS1-066]
Ans: no

Q: Threshold query (apparent KD of MS2 coat protein >= 0.06 µM) on GAAGACAUAGUUCAGGAUAUGGUAAUAGUCACAUGAGGAUCACCCAUGUGCAUUUAUAUGCGCGAUCAGAAGGGAGGUAGAUAAG [Mat - Same state - Malcolm Mod - D116]
Ans: no

Q: Threshold query (apparent KD of MS2 coat protein >= 0.06 µM) on AAAAUAUAAACGGAGGAUAUCCAAAGAACCACAUGAGGAUCACCCAUGUAAAGAAAGAAUAAGUGGGAGAAGGCCGAAAUAAUAA [Designing denovo 27]
Ans: no

Q: Threshold query (apparent KD of MS2 coat protein >= 0.06 µM) on CAGAGACAUGAGGAUCACCCAUGUAGGAUUAUGGGAGGAUAUACAAAGACGAGAGUCAGAGUAGAAGGCCUAGGAA [salish99-ss1-141]
Ans: no

Q: Threshold query (apparent KD of MS2 coat protein >= 0.06 µM) on AAUACACAUGGUCAGGAUAUCGCAGCUAGGACAUGAGGAUCACCCAUGUCGUAAGUAAAAGUAAAUGAGAAGGGACAGGGUGACC [JR_SS002_Sub406]
Ans: no

New cases:
Q: Threshold query (apparent KD of MS2 coat protein >= 0.06 µM) on GGGAGGAAGAGAGAGGAUAUCCAAAGGAAAACAUGAGGAUCACCCAUGUAAAAGGUAGGAAAUUGGGAGAAGGCUCAAGAGAGGG [salish99-ss2-051]
Ans: no

Q: Threshold query (apparent KD of MS2 coat protein >= 0.06 µM) on GCAAAACAUGAGGAUCACCCAUGUCAACAAAAUCAAGGAUAUGAGCCAGCAAUGCCGGCAUCAGAAGGUGAACCUU [Enqule]
Ans: yes

Q: Threshold query (apparent KD of MS2 coat protein >= 0.06 µM) on GGGAGGAAGAGAGAGGAUAUCCAAAGGAAAACAUGAGGAUCACCCAUGUAAAAGGUAGGAAAUUGGGAGAAGGCUCAAGAGAAAG [salish99-ss2-054]
Ans: no

Q: Threshold query (apparent KD of MS2 coat protein >= 0.06 µM) on AGAAGACAUGAGGAUCACCCAUGUGGGAUUAUGGGAGGAUAUACAAAGACGAGAGUCAGAGUAGAAGGCCUAGGAG [salish99-ss1-114(!)]
Ans: yes

Q: Threshold query (apparent KD of MS2 coat protein >= 0.06 µM) on AAUAUAUUAAGUGAGGAUAUCAUAGGAAAAACAUGAGGAUCACCCAUGUGGGAAACCUGGUCGGGUGAGAAGGUACUUAAUAUAU [Samwise Clockwise 31 - Jieux - Same State 2]
Ans: yes

Q: Threshold query (apparent KD of MS2 coat protein >= 0.06 µM) on AACAAUCUAUCUGAGGAUAUCAUGUCAAAGACAUGAGGAUCACCCAUGUCCAGGAAAACUGGAUAUGAGAAGGCAGAUAGAUUGA [SS2: 1105]
Ans: yes

Q: Threshold query (apparent KD of MS2 coat protein >= 0.06 µM) on AAAUGACAUGAGGAUCACCCAUGUCCACCAAACGGAGGAUAUUGGGCGGAAAAACGUUGUUAAGAAGGCCGAAAAA [SS1-1.0]
Ans: yes

Q: Threshold query (apparent KD of MS2 coat protein >= 0.06 µM) on UGAAAACAUGAGGAUCACCCAUGUAGAAAUAUGGGAGGAUAUACGAAGACGAAAGUCAAAGUAGAAGGCCUAAAUG [Mat - Same State 1 - Eli mod - D110]
Ans: yes

Q: Threshold query (apparent KD of MS2 coat protein >= 0.06 µM) on UGAAGACAUGAGGAUCACCCAUGUGGGAUUAUGGGAGGAUAUACAAAGACGAGAGUCAGAGUAGAAGGCCUAGGAU [salish99-ss1-117(!)]
Ans: no

Origin of measurements: the supplement of paper PMC9170038
